- Tested on: MRSA
- assay.name: anti-MRSA activity (96-well culture plate, OD at 625 nm after 24 h)
- Type: cell-based, methicillin-resistant Staphylococcus aureus
- settings: abstract statement

{"columns": ["compound", "anti-MRSA activity (in words)"],
 "data": [
  ["Cc1ccc2c(c1)-c1cc(C3CC(=O)c4c(O)cc(O)cc4O3)c(O)cc1OC2(C)C (stereo not shown)", "good activity"],
  ["CC1=C[C@H]2c3c(O)cc(-c4cc5ccc(O)cc5o4)cc3O[C@@]3(c4ccc(O)cc4O)Oc4cc(O)ccc4[C@H](C1)[C@@H]23", "good activity"],
  ["CC(C)=CCc1c(O)cc(O)c2c(=O)c3c(oc12)-c1ccc(O)cc1OC3C=C(C)C (stereo not shown)", "good activity"],
  ["CC(C)=CCc1c(-c2ccc(O)cc2O)oc2c(CC=C(C)C)c(O)cc(O)c2c1=O", "good activity"]
]}

---

- Test system: MRSA
- assay.name: anti-MRSA activity (96-well culture plate, OD at 625 nm after 24 h)
- Assay type: cell-based, methicillin-resistant Staphylococcus aureus
- settings: Staphylococcus aureus, MRSA, concentration 100 μM; preliminary screen; read-out: Inhibition rate (%) of MRSA
- Method: Prepare samples with DMSO as a solvent into a solution with an initial concentration of 20 mM; Take a 96-well culture plate, dilute the sample to be measured, and add bacterial solution to each well, and the final concentration is 5 × 10^5 CFU/mL; Incubate at 37 °C for 24 h, and the microplate reader determines the OD value at 625 nm. […] MIC50 (50% minimum inhibitory concentration) is calculated according to the Reed & Muench method.
Would you mind telling me the reported inhibition at 100 µM of each entry?

Consider the following illustrative entries.
{"columns": ["compound", "target", "inhibition at 100 µM"],
 "data": [
  ["COc1c(Cc2ccc(O)cc2)c(O)c2c3c(ccc2c1Cc1ccc(O)cc1)C(O)CCC3=O (stereo not drawn) [Compound 1]", "MRSA", "> 80%"],
  ["Cc1ccc2c(c1)-c1cc(C3CC(=O)c4c(O)cc(O)cc4O3)c(O)cc1OC2(C)C (stereo not drawn) [Compound 5]", "MRSA", "> 80%"],
  ["CC1(C)C=Cc2c(cc(O)c3c(=O)c(CC(O)C(C)(C)O)c(-c4ccc(O)cc4O)oc23)O1 (stereo not drawn) [Compound 6]", "MRSA", "> 80%"],
  ["CC(C)=CCc1c(O)cc(O)c2c(=O)c3c(oc12)-c1ccc(O)cc1OC3C=C(C)C (stereo not drawn) [Compound 11, cyclomulberrin]", "MRSA", "> 80%"],
  ["COc1cc(O)c2c3c(ccc2c1Cc1ccc(O)cc1)C(=O)C(Cc1ccc(O)cc1)(Cc1ccc(O)cc1)C3=O [Compound 2]", "MRSA", "77.2%"]
]}

// for each compound in input: emit inhibition at 100 µM
1. CC(C)=CCc1c(-c2ccc(O)cc2O)oc2c(CC=C(C)C)c(O)cc(O)c2c1=O [Compound 12, kuwanon C]
2. CC1=C[C@H]2c3c(O)cc(-c4cc5ccc(O)cc5o4)cc3O[C@@]3(c4ccc(O)cc4O)Oc4cc(O)ccc4[C@H](C1)[C@@H]23 [Compound 13, mulberrofuran G]
3. COc1cc2ccc3c(c2c(O)c1Cc1ccc(O)cc1)C(=O)C(Cc1ccc(O)cc1)(Cc1ccc(O)cc1)C3=O [Compound 3]
4. CC1=CC2c3c(cc(-c4cc5ccc(O)cc5o4)c(Cc4ccc(O)cc4)c3O)OC3(c4ccc(O)cc4O)Oc4cc(O)ccc4C(C1)C23 (stereo not drawn) [Compound 9]

["> 80%", "> 80%", "13.5%", "64%"]

---

Target or system AChE (Homo sapiens, UniProt P22303): recorded pIC50 listed per item.
Give bare numbers, as −log10 of the molar value.

{"columns": ["molecule", "reported.measurement"],
 "data": [
  ["CC1=CC2c3c(cc(-c4cc5ccc(O)cc5o4)c(Cc4ccc(O)cc4)c3O)OC3(c4ccc(O)cc4O)Oc4cc(O)ccc4C(C1)C23 (stereo not shown) [Compound 9]", 6.31],
  ["COc1cc2ccc3c(c2c(O)c1Cc1ccc(O)cc1)C(=O)C(Cc1ccc(O)cc1)(Cc1ccc(O)cc1)C3=O [Compound 3]", 4.81],
  ["COc1cc(O)c2c3c(ccc2c1Cc1ccc(O)cc1)C(=O)C(Cc1ccc(O)cc1)(Cc1ccc(O)cc1)C3=O [Compound 2]", 4.61]
]}

From here, focus on the item given below.
Fill in: pIC50 of CC1=C[C@H]2c3c(O)cc(-c4cc5ccc(O)cc5o4)cc3O[C@@]3(c4ccc(O)cc4O)Oc4cc(O)ccc4[C@H](C1)[C@@H]23 [Compound 13, mulberrofuran G] is ___
5.98
